- test_protocol: Volume of distribution at steady state in rat at 10 umol/kg, iv
- Assay type: ADME, organism-based
- run_parameters: in vivo, read-out: Vdss
Let's look at some compounds and their measured Vd.
// units = L/kg; emit number, no label

# compound, Vd [L/kg]
data = [
    ("CC(CCNC(=O)c1c(Cl)cncc1Cl)N1CCC(C(Oc2cccc(Cl)n2)c2ccc(C(F)(F)F)cc2)CC1 (mixture of isomers)", 15.2),
]

Next compound, please.
Req: Fill in reported Vd for this entry: CCO/N=C(/c1ccc(Br)cc1)C1CCN(C2(C)CCN(C(=O)c3c(C)cc[n+]([O-])c3C)CC2)CC1 [SCHERING C]
Resp: 7.2

---

- system_name: C-C chemokine receptor type 5 (Homo sapiens)
- Sequence (P51681 whole entry): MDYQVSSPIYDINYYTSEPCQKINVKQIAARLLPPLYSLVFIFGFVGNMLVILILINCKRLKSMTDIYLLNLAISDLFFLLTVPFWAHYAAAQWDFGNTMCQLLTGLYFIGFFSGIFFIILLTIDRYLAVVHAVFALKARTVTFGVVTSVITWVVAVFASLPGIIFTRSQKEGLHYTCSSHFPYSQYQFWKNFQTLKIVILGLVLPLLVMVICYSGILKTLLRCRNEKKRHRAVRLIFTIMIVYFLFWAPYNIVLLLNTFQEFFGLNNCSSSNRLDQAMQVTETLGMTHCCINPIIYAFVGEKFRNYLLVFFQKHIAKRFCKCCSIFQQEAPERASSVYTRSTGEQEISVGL
- test_protocol: Displacement of […] from CCR5 expressed in HEK293F cells
Readings of IC50 for the listed molecules
Your answer is read as nM, so omit the unit and give the number.

# molecule, result_units, IC50
rows = [
    ("Cc1ccnc(OC(c2ccc(Br)cc2)C2CCN(C(C)CCNC(=O)c3c(Cl)cncc3Cl)CC2)c1 (mixture of isomers)", "nM", 140),
]

Req: Note down IC50 recorded for CCO/N=C(/c1ccc(Br)cc1)C1CCN(C(C)CCNC(=O)c2c(C)cc[n+]([O-])c2C)CC1 (configuration not stated)
Resp: 290

Req: Please indicate IC50 recorded for CC(CCNC(=O)c1c(Cl)cncc1Cl)N1CCC(N(Cc2ccccc2)c2ccc(Br)cc2)CC1 (configuration not stated)
Resp: 30

Req: Report measured IC50; entry is CC(CCNC(=O)c1c(Cl)cncc1Cl)N1CCC(C(Oc2cccnc2)c2ccc(Br)cc2)CC1 (mixture of isomers)
Resp: 970

---

- test_protocol: Clearance in dog at 5 umol/kg, iv
- Format: ADME, organism-based, Canis lupus familiaris
- run_parameters: in vivo
observable: clearance (mL/min/kg)
# output: bare number, implied unit mL/min/kg

Req: Quote clearance reported for CC(CCNC(=O)c1c(Cl)cncc1Cl)N1CCC(C(Oc2cccc(Cl)n2)c2ccc(C(F)(F)F)cc2)CC1 (mixture of isomers) please.
Resp: 31.7

---

- test_protocol: Cmax in rat
- Format: ADME, organism-based
- run_parameters: in vivo
Measured Cmax, listed per entry.
Quick note: give the figure in nM, leave out the unit.

# molecule, meas_value
rows = [
    ("CC(CCNC(=O)c1c(Cl)cncc1Cl)N1CCC(C(Oc2cccc(Cl)n2)c2ccc(C(F)(F)F)cc2)CC1 (mixture of isomers)", 200),
]

Next molecule, Cmax to be filled in.
Req: Provide measured Cmax value, entry: CCO/N=C(/c1ccc(Br)cc1)C1CCN(C2(C)CCN(C(=O)c3c(C)cc[n+]([O-])c3C)CC2)CC1
Resp: 1600

---

- test_protocol: Cytotoxicity against human PBMC
- Assay type: cell-based
Quick reference: CC50 of the listed items.
Field format: number, assumed µM, no unit text.

Solved entries (count: 2):
# compound, CC50, µM
rows = [
    ("CC(CCNC(=O)c1c(Cl)cncc1Cl)N1CCC(C(Oc2ccccn2)c2ccc(C(F)(F)F)cc2)CC1 (mixture of isomers)", 34.1),
    ("CCO/N=C(/c1ccc(Br)cc1)C1CCN(C(C)CCNC(=O)c2c(Cl)cncc2Cl)CC1 (centres undefined)", 33.8),
]

Below: the item to evaluate.
Req: Provide measured CC50 value, entry: CC(CCNC(=O)c1c(Cl)cncc1Cl)N1CCC(C2=NOCc3cc(Br)ccc32)CC1 (centres undefined)
Resp: 185

These measurements were taken from ChEMBL document CHEMBL1759996.
